Tested on: CD2F1 mice, L1210 leukemia ip, survival T/C
Experiment: NCI In Vivo Anticancer Drug Screen. Data for tumor model L1210 Leukemia (intraperitoneal) in CD2F1 (CDF1) mice
Settings: endpoint: mean survival time; dose: 200.0 mg/kg/injection; schedule: Q04DX003 (ip); vehicle: saline with Tween-80; higher = longer survival
Procedure: The antitumor activity of compounds was measured in mice bearing transplantable tumors. Survival or tumor size were measured and the results are expressed as the measurement made in the treated group (T) divided by the measurement made in the vehicle treated control group (C). The tumor model used in this assay is L1210 Leukemia (intraperitoneal) in CD2F1 (CDF1) mice
Inconclusive results and toxic doses are left out.
Measured T/C of individual entries

Look over these answered cases.
MOLECULE: Cc1cc(NC(=O)c2ccc(Cl)cc2)ccc1Cl
MEASUREMENT_TARGET: CD2F1 mice, L1210 leukemia ip, survival T/C
T/C: 97 % of control
--
MOLECULE: O=c1cc(Cl)c(=O)[nH][nH]1
MEASUREMENT_TARGET: CD2F1 mice, L1210 leukemia ip, survival T/C
T/C: 94 % of control
--
MOLECULE: CC(C)CCCC(C)C1CCC2C3=CCC4CC(OC(=O)CCC(C)C)CCC4(C)C3CCC21C (configuration not stated)
MEASUREMENT_TARGET: CD2F1 mice, L1210 leukemia ip, survival T/C
T/C: 96 % of control
--
MOLECULE: C=CCCCCCCCCCCC(=O)OC
MEASUREMENT_TARGET: CD2F1 mice, L1210 leukemia ip, survival T/C
T/C: 94 % of control
--
MOLECULE: CCCCCCCCc1ccc(O)c(Cl)c1
MEASUREMENT_TARGET: CD2F1 mice, L1210 leukemia ip, survival T/C
T/C: 91 % of control

### Prompt Quick one: T/C of "O=CNc1ccc(O)cc1" ?
### Response 101 % of control

### Prompt Quick one: T/C of "O=C(COc1ccc(Cl)c(Cl)c1)NCc1cccc(Cl)c1" ?
### Response 93 % of control

### Prompt Quick one: T/C of "Nc1nc(N)nc(N)n1" ?
### Response 105 % of control

### Prompt Quick one: T/C of "N#CC1(c2ccc(Cl)cc2)CCC1" ?
### Response 101 % of control

### Prompt Quick one: T/C of "CC(=O)CC(C)=O.CC(=O)CC(C)=O.CC(=O)CC(C)=O.CC(=O)CC(C)=O.[Hf]" ?
### Response 94 % of control

### Prompt Quick one: T/C of "Cc1ccc(NC(=O)Nc2ccccc2C(F)(F)F)cc1NC(=O)Nc1ccccc1C(F)(F)F" ?
### Response 98 % of control

### Prompt Quick one: T/C of "Cc1ccc(-c2nc(-c3ccccc3)[nH]c(=O)c2CCO)cc1" ?
### Response 92 % of control

### Prompt Quick one: T/C of Cc1ccc(OCC(=O)C2CSc3ccc(Cl)cc32)cc1 (configuration not stated) ?
### Response 94 % of control

### Prompt Quick one: T/C of "C/C(=N/NC(=O)c1ccccc1)c1ccc(O)cc1" ?
### Response 98 % of control

----------
Test system: CD2F1 mice, L1210 leukemia ip, survival T/C
Test: NCI In Vivo Anticancer Drug Screen. Data for tumor model L1210 Leukemia (intraperitoneal) in CD2F1 (CDF1) mice
Settings: endpoint: mean survival time; dose: 100.0 mg/kg/injection; schedule: Q01DX005 (ip); vehicle: distilled water + Tween-80; higher = longer survival
Method: The antitumor activity of compounds was measured in mice bearing transplantable tumors. Survival or tumor size were measured and the results are expressed as the measurement made in the treated group (T) divided by the measurement made in the vehicle treated control group (C). The tumor model used in this assay is L1210 Leukemia (intraperitoneal) in CD2F1 (CDF1) mice
Inconclusive results and toxic doses are left out.
Measured T/C of individual entries

COMPOUND: COc1ccc(Nc2nc(N)nc3c2ncn3C2OC(CO)C(O)C2O)cc1 (stereo unspecified)
T/C: 111 % of control
//
COMPOUND: COC(=O)CSc1n[nH]c(=O)[nH]c1=O
T/C: 94 % of control
//
COMPOUND: Cn1c(=O)c2c(nc(Br)n2CC(O)CF)n(C)c1=O (stereo unspecified)
T/C: 101 % of control
//
COMPOUND: COP(=O)(O)OCC1OC(n2cnc3c(N)ncnc32)C(O)C1O (stereo unspecified)
T/C: 100 % of control
//
COMPOUND: CCn1c(=O)c2nc(Cl)n(C3OCC(OC(C)=O)C(OC(C)=O)C3OC(C)=O)c2n(CC)c1=O (stereo unspecified)
T/C: 98 % of control

Next, consider the following compound.
### Prompt Quick one: T/C of CCOC(=O)CCCSc1nn(C2OC(COC(=O)c3ccccc3)C(OC(=O)c3ccccc3)C2OC(=O)c2ccccc2)c(=O)[nH]c1=O (stereo unspecified) ?
### Response 88 % of control

----------
Tested on: CD2F1 mice, L1210 leukemia ip, survival T/C
Assay: NCI In Vivo Anticancer Drug Screen. Data for tumor model L1210 Leukemia (intraperitoneal) in CD2F1 (CDF1) mice
Details: endpoint: mean survival time; dose: 50.0 mg/kg/injection; schedule: Q04DX003 (ip); vehicle: saline with Tween-80; higher = longer survival
Toxic doses and inconclusive results are not listed.
MEASUREMENT_NAME: T/C

COMPOUND: c1ccc2nc(C3CO3)cnc2c1 (stereo unspecified)
MEASUREMENT_TARGET: CD2F1 mice, L1210 leukemia ip, survival T/C
OBS_VALUE: 100 % of control
--
COMPOUND: CCOC(=O)c1c(C)nc(C)c(C(=O)OCC)c1-c1cccc([N+](=O)[O-])c1
MEASUREMENT_TARGET: CD2F1 mice, L1210 leukemia ip, survival T/C
OBS_VALUE: 97 % of control
--
COMPOUND: CCCCCCCCCCCCCCCCCC[Se][Se]CCCCCCCCCCCCCCCCCC
MEASUREMENT_TARGET: CD2F1 mice, L1210 leukemia ip, survival T/C
OBS_VALUE: 95 % of control
--
COMPOUND: CCCOC(=O)c1ccc(NC(=O)Nc2ccc(C(=O)OCC)cc2)cc1
MEASUREMENT_TARGET: CD2F1 mice, L1210 leukemia ip, survival T/C
OBS_VALUE: 92 % of control

### Prompt Under CD2F1 mice, L1210 leukemia ip, survival T/C: T/C value of "C=CCOc1ccncc1" ?
### Response 93 % of control

### Prompt Under CD2F1 mice, L1210 leukemia ip, survival T/C: T/C value of "Cc1cc(NC(=O)NCCOc2ccc(N3C(N)=NC(N)=NC3(C)C)cc2Cl)ccc1S(=O)(=O)F" ?
### Response 91 % of control

----------
Tested on: CD2F1 mice, L1210 leukemia ip, survival T/C
Test: NCI In Vivo Anticancer Drug Screen. Data for tumor model L1210 Leukemia (intraperitoneal) in CD2F1 (CDF1) mice
Conditions: endpoint: mean survival time; dose: 200.0 mg/kg/injection; schedule: Q01DX001 (ip); vehicle: saline with Tween-80; higher = longer survival
Inconclusive results and toxic doses are left out.
Measured T/C of individual entries

Look over these answered cases.
COMPOUND: C=CCOC(c1ccc2c(c1)OCO2)C(C)Br (stereo not given)
T/C: 94 % of control
--
COMPOUND: CC(=O)OC(c1ccccc1)C(C)C(O)(C(F)(F)F)C(F)(F)F (stereo not given)
T/C: 87 % of control
--
COMPOUND: Nc1ccc(OCc2nc(N)nc(N)c2-c2ccc(Cl)cc2)cc1
T/C: 93 % of control
--
COMPOUND: CCCCOS(=O)OCCCC
T/C: 102 % of control
--
COMPOUND: COC(=O)CCC(NC(=O)c1cccc(N(C)C=O)c1)C(=O)OC (stereo not given)
T/C: 115 % of control

### Prompt Quick one: T/C of "FCCc1ccc(F)cc1" ?
### Response 100 % of control

### Prompt Quick one: T/C of "CCCCCCCCCCCCCCCCSC(=S)OCC" ?
### Response 87 % of control

### Prompt Quick one: T/C of "O=C(COc1cccc(Cl)c1)NCc1ccccc1NC(=O)Nc1cccc(S(=O)(=O)F)c1" ?
### Response 89 % of control

### Prompt Quick one: T/C of CCC(C(=O)O)c1ccc(-c2ccccc2)cc1 (stereo not given) ?
### Response 93 % of control

### Prompt Quick one: T/C of "CC1(C)CC(=O)C=C(N2CCC(CCCC3CCN(C4=CC(=O)CC(C)(C)C4)CC3)CC2)C1" ?
### Response 93 % of control

### Prompt Quick one: T/C of CC(C)CCCC(C)C1CCC2C3C(=O)C4=CC(=O)CCC4(C)C3CCC12C (stereo not given) ?
### Response 96 % of control

### Prompt Quick one: T/C of OC1CCCCCCCCCCC1C(O)(C(F)(F)F)C(F)(F)F (stereo not given) ?
### Response 89 % of control

### Prompt Quick one: T/C of CC(=O)OCC(C)CCC1OC2CC3C4CCC5CC(OC(C)=O)CCC5(C)C4CCC3(C)C2C1C (stereo not given) ?
### Response 101 % of control

### Prompt Quick one: T/C of "CC(C)(C)C#C/C(=N\Nc1ccc([N+](=O)[O-])cc1[N+](=O)[O-])c1ccccc1" ?
### Response 89 % of control

### Prompt Quick one: T/C of "NC(=O)Cc1ccccc1[N+](=O)[O-]" ?
### Response 106 % of control

### Prompt Quick one: T/C of "CCCCCCCCCCCCCCOc1ccc(OCCCCCCCCCCC)cc1" ?
### Response 89 % of control

### Prompt Quick one: T/C of CC(CCC(=O)O)C1CCC2C3C(O)CC4CC(O)CCC4(C)C3CC(O)C12C (stereo not given) ?
### Response 100 % of control

### Prompt Quick one: T/C of "NNC(=O)CCCCCC/C=C/CCCCCCCO" ?
### Response 101 % of control

### Prompt Quick one: T/C of "CC(=O)c1cccc(C(=O)O)c1" ?
### Response 101 % of control

### Prompt Quick one: T/C of "OCCN=Cc1c[nH]c2ccccc12" ?
### Response 106 % of control

### Prompt Quick one: T/C of "O=c1ccn(Cc2ccc([N+](=O)[O-])cc2)c(=O)[nH]1" ?
### Response 90 % of control

### Prompt Quick one: T/C of "CC(C)OC(=O)Nc1cccc(Cl)c1F" ?
### Response 95 % of control

### Prompt Quick one: T/C of "O=S(=O)(Nc1ccc(NS(=O)(=O)c2ccccc2)c(N2CCOCC2)c1)c1ccccc1" ?
### Response 101 % of control

### Prompt Quick one: T/C of "O=C(O)c1cccc2[nH][nH]c(=O)c12" ?
### Response 102 % of control

### Prompt Quick one: T/C of "C(#Cc1ccccc1)/C=C/C(=C\c1ccccc1)c1ccccc1" ?
### Response 89 % of control

### Prompt Quick one: T/C of "O=C1/C(=C\c2ccccc2)C2CCC(C2)/C1=C\c1ccccc1" ?
### Response 88 % of control

### Prompt Quick one: T/C of OC1CCCCC(O)CCCC1 (stereo not given) ?
### Response 116 % of control

Hello, the source for this data is PubChem BioAssay AID256, in case you need it.
